# testedSystem: CDK2/Cyclin E1 (Homo sapiens)
# procedureDetails: CDK2/Cyclin E1 Biochemical Assay (TR-FRET), 0.060 mM ATP
# studyConditions: 0.15 μM Rb (Ser780)-biotin substrate, pH7.0, 60 min preincubation, 120 min reaction, room temperature
pIC50: −log10 of the molar value.
measuredQuantity: pIC50

Use the examples below as a reference point.
**Q:** Item CCCNC(=O)O[C@H]1CC[C@@H](c2cc(Nc3ccc4c(c3F)S(=O)(=O)NC4)n[nH]2)C1 (single isomer, unassigned) [Example 189b] has what recorded pIC50?
**A:** 8.57

**Q:** Item COCC(C)NC(=O)O[C@H]1CC[C@@H](c2cc(Nc3ccc4c(c3F)CNS4(=O)=O)n[nH]2)C1 (relative stereo) has what recorded pIC50?
**A:** 8.19

P: COCCN1Cc2c(ccc(Nc3cc([C@@H]4CC[C@H](OC(=O)NC(C)C)C4)[nH]n3)c2C)S1(=O)=O (relative stereo)
Q: CC(C)NC(=O)O[C@H]1CC[C@@H](c2cc(Nc3cc4c(cc3F)S(=O)(=O)NC4)n[nH]2)C1 (single isomer, unassigned) [Example 12a]
R: CC1(NC(=O)O[C@H]2CC[C@@H](c3cc(Nc4ccc5c(c4F)CS(=O)(=O)N5C4CC4)n[nH]3)C2)CC1 (relative stereo)
S: CC(C)NC(=O)O[C@H]1CC[C@@H](c2cc(Nc3ccc4c(c3)C(C)S(=O)(=O)N4)n[nH]2)C1 (single isomer, unassigned) [Example 384a]
T: CC(C)NC(=O)O[C@H]1CC[C@@H](c2cc(Nc3ccc4c(c3)C(C)(C)S(=O)(=O)N4)n[nH]2)C1 (relative stereo)
**Q:** Exam item: list the entries in increasing order of pIC50. # format: label list in the order the request specifies
**A:** P, Q, T, R, S

###

# testedSystem: CDK1/Cyclin B1 (Homo sapiens, UniProt P06493)
# Sequence (P06493 whole entry): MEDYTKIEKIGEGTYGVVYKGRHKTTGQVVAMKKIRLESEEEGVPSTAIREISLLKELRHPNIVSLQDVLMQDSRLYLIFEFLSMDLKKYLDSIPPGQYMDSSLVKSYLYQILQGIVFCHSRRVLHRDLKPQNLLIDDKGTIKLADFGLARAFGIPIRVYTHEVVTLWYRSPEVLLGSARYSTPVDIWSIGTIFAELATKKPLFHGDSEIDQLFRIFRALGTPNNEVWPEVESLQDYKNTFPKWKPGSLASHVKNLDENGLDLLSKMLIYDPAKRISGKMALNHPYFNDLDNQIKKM
# Sequence (P14635 whole entry partner): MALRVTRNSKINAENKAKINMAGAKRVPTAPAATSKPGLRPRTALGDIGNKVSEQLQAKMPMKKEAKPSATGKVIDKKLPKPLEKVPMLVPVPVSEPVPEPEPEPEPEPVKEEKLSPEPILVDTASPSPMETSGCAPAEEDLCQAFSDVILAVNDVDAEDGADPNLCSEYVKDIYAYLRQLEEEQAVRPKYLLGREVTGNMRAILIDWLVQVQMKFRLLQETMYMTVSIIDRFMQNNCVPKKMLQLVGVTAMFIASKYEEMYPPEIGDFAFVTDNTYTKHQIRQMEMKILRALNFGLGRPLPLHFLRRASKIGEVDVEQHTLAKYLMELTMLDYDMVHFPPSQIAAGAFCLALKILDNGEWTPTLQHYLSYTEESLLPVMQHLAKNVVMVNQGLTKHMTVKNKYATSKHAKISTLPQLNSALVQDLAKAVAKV
# procedureDetails: CDK1/Cyclin B1 Biochemical Assay (TR-FRET), 0.015 mM ATP
# studyConditions: 0.15 μM Rb (Ser780)-biotin substrate, pH7.0, 60 min preincubation, 120 min reaction, room temperature
measuredQuantity: IC50 (nM)

**Q:** Item CC1NS(=O)(=O)c2ccc(Nc3cc([C@@H]4CC[C@H](OC(=O)NC5(C)CC5)C4)[nH]n3)cc21 (single isomer, unassigned) [Example 322a] has what recorded IC50?
**A:** 17

A: C[C@@H](CO)NC(=O)O[C@H]1CC[C@@H](c2cc(Nc3ccc4c(c3)CS(=O)(=O)N4C)n[nH]2)C1 (relative stereo)
B: CC(NC(=O)O[C@H]1CC[C@@H](c2cc(Nc3ccc4c(c3F)CNS4(=O)=O)n[nH]2)C1)C1COC1 (relative stereo)
**Q:** Field: lower recorded IC50 (choose A or B ) Reply with the label of the item you choose.
**A:** A

###

# testedSystem: CDK1/Cyclin B1 (Homo sapiens)
# procedureDetails: CDK1/Cyclin B1 Biochemical Assay (TR-FRET), 0.015 mM ATP
# studyConditions: 0.15 μM Rb (Ser780)-biotin substrate, pH7.0, 60 min preincubation, 120 min reaction, room temperature
measuredQuantity: IC50 (nM)

**Q:** For the record O=C(O[C@H]1CC[C@@H](c2cc(Nc3ccc4c(c3)CNS4(=O)=O)n[nH]2)C1)N1CCCC1 (relative stereo) , what value of IC50 is listed for CDK1/Cyclin B1 (Homo sapiens)?
**A:** 136

I: CC(C)NC(=O)O[C@H]1CC[C@@H](c2cc(Nc3ccc4c(c3F)CN(CC3CNC3)S4(=O)=O)n[nH]2)C1 (relative stereo)
II: CN1c2ccc(Nc3cc([C@@H]4CC[C@H](OC(=O)NC(C)(C)C)C4)[nH]n3)cc2CS1(=O)=O [Example 391b]
**Q:** Of I and II , whose reported IC50 is the larger number? Reply with the label of the item you choose.
**A:** I
(I: 689 nM, II: 7.8 nM)
